# protocol.notes: probe aWnt5a binding to arrayed compounds – biochemical, biotinylated probe, 635/667 nm fluorescence, primary screen (AID 1113);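 further: score merges 667 nm fluorescence intensity with signal-to-noise per printed feature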
# protocol.conditions: small-molecule microarray, higher = more signal
readout.label: composite z-score
Provide a numeric answer; units are not to be included.

Reported composite z-score, compound O=C1C2C=CC(C(O)c3cccs3)N(Nc3ccc([N+](=O)[O-])cc3)C2C(=O)N1c1ccccc1 (stereo not drawn) : ____
-0.0179

Reported composite z-score, compound CN1C(=O)C2C(C1=O)C1C=C(c3ccc(CO)cc3)C2C(C2CC2)N1C (stereo not drawn) : ____
-0.0664

Reported composite z-score, compound CC1CC/C=C\[C@H]2OC34C=CCN(Cc5ccccc5)C(=O)[C@H]3N(CCCCCCO)C(=O)[C@@H]4C2C(=O)O1 (stereo partly drawn) : ____
-0.12

Reported composite z-score, compound COc1ccc([Si](C)(C)[C@@H]2[C@@H](CC(=O)N3Cc4ccccc4C[C@H]3CO)O[C@]3(C(=O)N(Cc4ccc(N5CCOC5=O)cc4)c4ccccc43)[C@H]2C)cc1 : ____
-0.119

More entries:
Reported composite z-score, compound COC(=O)[C@@]1(Cc2ccc(OC)cc2)[C@H]2c3cc(C(=O)N4CCCC4)n(CCn4cc([N+](=O)[O-])nc4C)c3C[C@H]2CN1C(=O)c1ccccc1 : ____
1.19

Reported composite z-score, compound COCCOC(=O)N1C(=O)[C@@]2(c3cc(C#CCCO)ccc31)[C@H](C(N)=O)[C@H]1C(=O)O[C@H](c3ccccc3)[C@H](c3ccccc3)N1[C@@H]2c1ccccc1OCCO : ____
-0.0445

Reported composite z-score, compound C=C(CCCC)/C(=C/C[C@H](OC(=O)c1ccncc1)c1cccc(OCCO)c1)c1cnc2ccccc2c1 : ____
-0.0459

Reported composite z-score, compound O=C1NC(=O)C2C1C=CC(C(O)c1ccc(B(O)O)cc1)N2Nc1ccc(Cl)cc1Cl (stereo not drawn) : ____
-0.0721

Reported composite z-score, compound COc1cc(C(O)C2C=CC3C(=O)N(c4ccccc4)C(=O)C3N2Nc2ccccc2)cc(OC)c1OC (stereo not drawn) : ____
0.0472

Reported composite z-score, compound CCOC(=O)C1=CC[C@@H](c2ccc(OC)cc2)N(S(=O)(=O)c2ccc(C)cc2)[C@H]1c1ccc(C)cc1 : ____
0.0509

Reported composite z-score, compound CCOC(=O)C[C@H]1[C@H](OC(=O)Cc2ccc3c(c2)OCO3)[C@@H](NC(=O)c2ccc3ccccc3n2)c2cc(OCCCO)ccc2N1C(=O)Cc1ccc(OC)cc1 : ____
-0.124

Reported composite z-score, compound CC(C)(C)OC(=O)CC[C@@]1(C(=O)NCCN2CCOCC2)N=C(c2ccc(OCCCO)cc2)O[C@@H]1c1ccccc1CN=[N+]=[N-] : ____
0.0219

Reported composite z-score, compound CCOc1cc(C(O)C2C=CC3C(=O)N(c4ccccc4)C(=O)C3N2Nc2ccccc2F)ccc1O (stereo not drawn) : ____
0.302

Reported composite z-score, compound O=C(NCCN1CCOCC1)[C@@H]1c2ccccc2C(=O)N(Cc2ccc(OC(F)(F)F)cc2)[C@H]1c1ccc(CO)cc1 : ____
-0.11

Reported composite z-score, compound COCCOC(=O)N1C(=O)[C@@]2(c3cc(C#CCCO)ccc31)[C@H](c1ccccc1OCCO)N1[C@H](c3ccccc3)[C@H](c3ccccc3)OC(=O)[C@H]1[C@@H]2C(N)=O : ____
0.002

Reported composite z-score, compound O=C1[C@@H]2[C@@H](CC(COc3ccccc3)=C([C@H](O)CCc3ccccc3)[C@@H]2CO)C(=O)N1Cc1ccccc1 : ____
-0.1

Reported composite z-score, compound COc1ccc(CCNC(=O)[C@@H]2c3ccccc3C(=O)N(Cc3ccccc3OC)[C@H]2c2ccc(CO)cc2)cc1 : ____
-0.0398

Reported composite z-score, compound CC(C)(C)N1CC=CC23O[C@@H]4C=CCOC(=O)[C@@H]4[C@H]2C(=O)N(CCO)[C@@H]3C1=O (stereo partly drawn) : ____
-0.15

Reported composite z-score, compound C[C@@H]1NC(=O)C([C@@H](C)OCc2ccccc2)NC(=O)[C@@]23C(=O)N[C@@H](Cc4ccccc4)C2[C@H](C)[C@@]2(C)O[C@H]2C3/C=C/C/C=C\CNC1=O (stereo partly drawn) : ____
-0.172

Reported composite z-score, compound N#Cc1ccc(-c2cccc(=O)o2)cc1 : ____
-0.0383

Reported composite z-score, compound COc1ccc([Si](C)(C)[C@H]2[C@H](CC(=O)N3Cc4ccccc4C[C@H]3CO)O[C@@]3(C(=O)N(C)c4ccccc43)[C@@H]2C)cc1 : ____
-0.124

Reported composite z-score, compound CC1CC/C=C\[C@H]2OC34C=CCN(Cn5nnc6ccccc65)C(=O)[C@H]3N(CCCCCCO)C(=O)[C@@H]4C2C(=O)O1 (stereo partly drawn) : ____
-0.232

Reported composite z-score, compound COC(=O)[C@@]1(Cc2ccc(OC)cc2)[C@H]2c3cc(C(=O)N4CCCC4)n(Cc4ccc(C(F)(F)F)nc4)c3C[C@H]2CN1C(=O)c1ccccc1 : ____
0.037

Reported composite z-score, compound COc1ccc(C(O)C2C=CC3C(=O)N(C)C(=O)C3N2N(c2ccccc2)c2ccccc2)cc1 (stereo not drawn) : ____
0.0102

Reported composite z-score, compound CCOC(=O)C1=CC[C@@H](c2ccc(OC)cc2)N(S(=O)(=O)c2ccc(C)cc2)[C@H]1CC : ____
0.0438

Reported composite z-score, compound COc1ccc([Si](C)(C)[C@H]2[C@H](CC(=O)N3Cc4ccccc4C[C@H]3CO)O[C@@]3(C(=O)N(C)c4c(Br)cc(C)cc43)[C@@H]2C)cc1 : ____
-0.102

Reported composite z-score, compound COCCOC(=O)N1C(=O)[C@@]2(c3ccccc31)[C@H](c1ccc(O)cc1)N1[C@H](c3ccccc3)[C@H](c3ccccc3)OC(=O)[C@H]1[C@@H]2C(=O)N1CCCCCCC1 : ____
0.65

Reported composite z-score, compound COc1ccc(C#Cc2ccc3c(c2)[C@]2(C(=O)N3)[C@H](C(=O)O)[C@H]3C(=O)O[C@H](c4ccccc4)[C@H](c4ccccc4)N3[C@@H]2c2ccccc2OCCO)cc1 : ____
-0.235
